test.system: PTP1B (Homo sapiens, UniProt P18031)
Sequence (P18031 1-321): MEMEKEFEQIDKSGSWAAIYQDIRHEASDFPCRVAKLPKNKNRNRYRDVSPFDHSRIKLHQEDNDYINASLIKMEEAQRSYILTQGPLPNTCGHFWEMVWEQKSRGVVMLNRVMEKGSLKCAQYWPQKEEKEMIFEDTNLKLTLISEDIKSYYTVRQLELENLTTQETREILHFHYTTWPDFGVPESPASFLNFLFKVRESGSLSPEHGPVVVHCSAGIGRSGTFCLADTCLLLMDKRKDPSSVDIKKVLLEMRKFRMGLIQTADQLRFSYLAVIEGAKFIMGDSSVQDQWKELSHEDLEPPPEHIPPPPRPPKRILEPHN
run.description: melting temperatures determined with differential scanning fluorimetry
Assay type: binding
conditions.used: n=3
attribute.measured: effect on melting temperature (stability) of PTP1B

compound	endpoint.value
Cc1cc(-c2c3ccccc3c(Br)c3sc(C)c(C)c23)cc(C)c1O[C@H](Cc1ccccc1)C(=O)O [Ertiprotafib]	destabilize PTP1B
O=C(O)C(=O)Nc1sc2c(c1C(=O)O)CCNC2 [TCS401]	do not
CCc1oc2cc(S(=O)(=O)Nc3ccc(S(=O)(=O)Nc4nccs4)cc3)ccc2c1C(=O)c1cc(Br)c(O)c(Br)c1 [BBR]	destabilize PTP1B
C=C(C)[C@@H]1CC[C@@H](C)[C@@H]2CCC(C)=C[C@@H]21 [amorphadiene]	do not
